SYSTEM: antiserum from C430-BSA-immunized mice
PROCEDURE_DETAILS: CI-ELISA, immobilized phage-displayed DONPEP.2, antiserum after the fourth injection, free C430 as competitor
QUANTITY_MEASURED: pIC50
Give bare numbers, as −log10 of the molar value.

[in] Would you mind telling me what pIC50 value was observed for H-SWGPFPFGGGSC-OH [synthetic peptide C430 (NH2-…-COOH)] ?
[out] 6.41
